System: T-47D breast
Method Summary: NCI tumour cell line growth inhibition, 48 h; in the data active = GI50 below about 0.43 µM; inactive = the rest
Outcomes: active, inactive

>  <Molecule>
O=C1CC/C(=C\COc2ccc3ccc(=O)oc3c2)O1

>  <Qualitative Label>
inactive

$$$$
>  <Molecule>
Cc1ccccc1C(C(=O)NC1CCCCC1)N(C(=O)Cn1ccnc1C)c1cccc(F)c1 (configuration not stated)

>  <Qualitative Label>
inactive

$$$$
>  <Molecule>
CC1(C)Cc2c(Br)c(Br)c(Br)c(OCC(O)CN3CCOCC3)c2O1 (configuration not stated)

>  <Qualitative Label>
inactive

$$$$
>  <Molecule>
N/C(=N\c1nc2ccccc2s1)NC(=O)Nc1cccc2ccccc12

>  <Qualitative Label>
inactive

$$$$
>  <Molecule>
COc1cc2c(cc1OC)-c1c(c3ccc([N+](=O)[O-])cc3c(=O)n1CCCN)C2=O

>  <Qualitative Label>
active

$$$$
>  <Molecule>
Cc1ccc(C[P+](c2ccccc2)(c2ccccc2)c2ccccc2)cc1

>  <Qualitative Label>
active

$$$$
>  <Molecule>
COc1cc(OC)cc(-c2cncn2-c2ccc(-c3nc4cc(OC)cc(OC)c4s3)cc2)c1

>  <Qualitative Label>
inactive

$$$$

----------
Tested on: M14 melanoma
Method Summary: NCI tumour cell line growth inhibition, 48 h

>  <Compound>
CC(=O)Nc1ccc(-c2nnc(SCC(=O)Nc3ccccc3C)o2)cc1

>  <Censor Symbol>
>

>  <TGI / µM>
100

$$$$
>  <Compound>
CN(c1ccccc1Cl)S(=O)(=O)c1ccccc1[N+](=O)[O-]

>  <Censor Symbol>
=

>  <TGI / µM>
46.3

$$$$
>  <Compound>
CCOC(=O)C(=Cn1c(=S)[nH]c2ccc([N+](=O)[O-])cc21)C(=O)OCC

>  <Censor Symbol>
>

>  <TGI / µM>
100

$$$$
>  <Compound>
COc1ccc(-c2ccccc2)cc1-c1c(Nc2cc(Cl)cc(Cl)c2O)c(=O)c1=O

>  <Censor Symbol>
>

>  <TGI / µM>
50

$$$$
>  <Compound>
COc1cc2c(cc1Cl)n([O-])c(C#N)c(N1CCN(c3ccc([N+](=O)[O-])cc3)CC1)[n+]2=O

>  <Censor Symbol>
>

>  <TGI / µM>
100

$$$$
>  <Compound>
CCN1CCC(CC(=O)Nc2n[nH]c3nc(-c4cccs4)c(Br)cc23)CC1

>  <Censor Symbol>
=

>  <TGI / µM>
14.6

$$$$
>  <Compound>
C#CCOC(=O)C(N)CCCN=C(N)N (stereo not drawn)

>  <Censor Symbol>
>

>  <TGI / µM>
100

$$$$
>  <Compound>
Oc1cc(Cl)ccc1Cc1ccc(Cl)cc1O

>  <Censor Symbol>
=

>  <TGI / µM>
26.3

$$$$
>  <Compound>
COc1cc(-c2nc3nc(N4CCN(C)CC4)ccc3[nH]2)c(OC)c2[nH]c(COC(C)=O)nc12

>  <Censor Symbol>
=

>  <TGI / µM>
34.4

$$$$
>  <Compound>
CCOC(=O)C1=C(c2ccccc2)N(c2ccc(OC)cc2)[C@]2(C#N)C(O)=C(Cl)C(Cl)=C(O)[C@]12C#N

>  <Censor Symbol>
=

>  <TGI / µM>
41.3

$$$$
>  <Compound>
CC(=O)NC1=C(NCc2ccc(Cl)cc2)C(=O)c2ccccc2C1=O

>  <Censor Symbol>
=

>  <TGI / µM>
13.5

$$$$
>  <Compound>
Cc1cc(C)c2c(N)c3cccc(C)c3nc2n1

>  <Censor Symbol>
=

>  <TGI / µM>
3.24

$$$$
>  <Compound>
c1cncc(CNc2ncn[nH]2)c1

>  <Censor Symbol>
>

>  <TGI / µM>
100

$$$$
>  <Compound>
O=C(O)CCCNS(=O)(=O)c1ccc2ccccc2c1

>  <Censor Symbol>
>

>  <TGI / µM>
100

$$$$
>  <Compound>
CO/C(=N\N=C\c1cccc(C(F)(F)F)c1)c1ccncc1

>  <Censor Symbol>
=

>  <TGI / µM>
94.4

$$$$
>  <Compound>
COc1cc(/C=C/C(=O)OC[C@H](Br)[C@H](OC(C)=O)c2ccc3c(c2)OCO3)cc(OC)c1OC

>  <Censor Symbol>
>

>  <TGI / µM>
100

$$$$
>  <Compound>
Cc1cc(N=C2C=C(Nc3cc(C)on3)C(=O)c3ccccc32)no1

>  <Censor Symbol>
>

>  <TGI / µM>
100

$$$$
>  <Compound>
CCC[CH2][Sn]1([CH2]CCC)[O]C(=O)CN=Cc2ccccc2[O]1

>  <Censor Symbol>
=

>  <TGI / µM>
1.37

$$$$
>  <Compound>
CS(=O)(=O)O.[Ag]

>  <Censor Symbol>
=

>  <TGI / µM>
9.44

$$$$
>  <Compound>
N#Cc1c(N2CCN(c3ccc([N+](=O)[O-])cc3)CC2)[n+](=O)c2ccc(Cl)cc2n1[O-]

>  <Censor Symbol>
>

>  <TGI / µM>
23.4

$$$$
>  <Compound>
CO/N=C(/COc1c(-c2ccccc2)oc2ccccc2c1=O)c1ccc(F)cc1

>  <Censor Symbol>
>

>  <TGI / µM>
100

$$$$
>  <Compound>
CC(=O)O[C@H]1CC[C@@]2(C)C(=CC[C@@H]3C2CC[C@]2(C)Nc4[nH]ncc4CC32)C1 (stereo partly drawn)

>  <Censor Symbol>
=

>  <TGI / µM>
42.9

$$$$
>  <Compound>
O=C(/C=C/c1ccccc1O)/C=C/c1ccccc1O

>  <Censor Symbol>
=

>  <TGI / µM>
3.55

$$$$
>  <Compound>
Cc1ccc2nc(Cl)c(/C=N/N3C(=O)/C(=C/c4ccc(N(C)C)cc4)N=C3c3ccccc3)cc2c1

>  <Censor Symbol>
>

>  <TGI / µM>
100

$$$$
>  <Compound>
COc1cc(C(SCc2ccccc2)SCc2ccccc2)ccc1O

>  <Censor Symbol>
>

>  <TGI / µM>
10

$$$$
>  <Compound>
COc1ccc2c(c1)-c1oc3ccccc3c(=O)c1CO2

>  <Censor Symbol>
>

>  <TGI / µM>
100

$$$$
>  <Compound>
COc1ccc2c(c1)[C@@]1(C)CCC3c4ccc(O)cc4CCC3C1C2 (stereo partly drawn)

>  <Censor Symbol>
=

>  <TGI / µM>
33.5

$$$$
>  <Compound>
COc1ccccc1NC(=O)C1=C(C)NC(C)=C(C(=O)Nc2ccccc2OC)C1c1cccc2c1OCO2

>  <Censor Symbol>
>

>  <TGI / µM>
100

$$$$
>  <Compound>
O=C1CC/C(=C\COc2ccc3ccc(=O)oc3c2)O1

>  <Censor Symbol>
=

>  <TGI / µM>
13.9

$$$$
>  <Compound>
Cc1c(O)c(=O)ccn1CCO

>  <Censor Symbol>
>

>  <TGI / µM>
100

$$$$
>  <Compound>
CC(C)(C)OC(=O)NCC(=O)N1CCCN(C(=O)CNC(=O)OC(C)(C)C)CC1

>  <Censor Symbol>
>

>  <TGI / µM>
100

$$$$
>  <Compound>
O=C(O)c1ccc(Nc2nc3ccccc3nc2C(=O)O)cc1

>  <Censor Symbol>
>

>  <TGI / µM>
100

$$$$
>  <Compound>
COc1cc2c3c(n(C)c(=O)c2cc1OC)-c1cc2c(cc1/C3=C/[C@H](N)CCCCN)OCO2

>  <Censor Symbol>
=

>  <TGI / µM>
4.55

$$$$

Origin of measurements: PubChem BioAssay (NCI)
